- System: MCF7 cells
- experimentNotes: MTS cytotoxicity assay
- Assay type: cell-based, human
- reportedConditions: Homo sapiens; MCF7 cell line, 48 hours, single treatment; read-out: cytotoxic activity IC50
measureName: IC50

Value of measured IC50 for the entry O=C(CSc1ccccc1)NCCCn1ccnc1 [MH-200102] : 14.6 µM
